Tested on: Influenza A virus
Measurement notes: Antiviral activity against Influenza A virus (A/Puerto Rico/8/34(H1N1)) infected in MDCK cells assessed as virus yield after 48 hrs end-point dilution method
Assay type: functional, organism-based
Condition summary: A/Puerto Rico/8/1934(H1N1)
Measured endpoint: log10(EC50) (log10 of the value in µg/mL)
A difference of one corresponds to tenfold EC50; all values are log10 with EC50 in µg/mL.

// worked examples, log10(EC50) included
Cc1nnn(C23CC4CC(CC(C4)C2)C3)n1: 1.89
CCc1nnn(C23CC4CC(CC(N)(C4)C2)C3)n1.Cl: 1.40
O=C(O)c1nn(C23CC4CC(CC(C4)C2)C3)cc1Br: 2.48
Cc1nn(C23CC4CC(CC(C4)C2)C3)c(C)c1N: 2.00
CC(N)C12CC3CC(C1)CC(n1ncnn1)(C3)C2.Cl (configuration not stated): 1.36

As a next step, examine the molecule that follows.
// returns reported log10(EC50) for input Cl.NC12CC3CC(C1)CC(n1cnc(Br)n1)(C3)C2
2.05

====

Measurement notes: Selectivity index, ratio of CTD50 for MDCK cells to EC50 for Influenza A virus (A/Puerto Rico/8/34(H1N1))
Type: toxicity, cell-based
Condition summary: dog, read-out: Selectivity Index
Measured endpoint: selectivity ratio
Reply with the value as a number alone.

As a guide, the following entries are already answered.
c1nnn(C23CC4CC(CC(C4)C2)C3)n1: 5
CC(N)C12CC3CC(CC(C3)C1)C2 (stereo not given): 12
CC(N)C12CC3CC(C1)CC(n1cnc([N+](=O)[O-])n1)(C3)C2.Cl (stereo not given): 1
[S-]c1n[n+](C23CC4CC(CC(C4)C2)C3)nn1-c1ccccc1: 2
Cl.NC12CC3CC(C1)CC(n1cnc(Br)n1)(C3)C2: 6
CC(N)C12CC3CC(C1)CC(n1ncnn1)(C3)C2.Cl (stereo not given): 18
CC(N)C12CC3CC(C1)CC(n1cnc(Cl)n1)(C3)C2.Cl (stereo not given): 9
NC1N=NC(Cc2nnn(C34CC5CC(CC(C5)C3)C4)n2)=N1 (stereo not given): 2

For CCOC(=O)Cc1nnn(C23CC4CC(CC(N)(C4)C2)C3)n1.Cl , what is its reported selectivity ratio?
7

====

Collected log10(EC50) values appear next to each entry.
Test system: Influenza A virus
Measurement notes: Antiviral activity against Influenza A virus (A/Puerto Rico/8/34(H1N1)) infected in MDCK cells assessed as virus yield after 48 hrs end-point dilution method
Assay type: functional, organism-based
Condition summary: A/Puerto Rico/8/1934(H1N1)
// stored as log10 of EC50 expressed in µg/mL

Use the examples below as a reference point.
c1ncn(C23CC4CC(CC(C4)C2)C3)n1: 1.89
c1nnnn1C12CC3CC(CC(C3)C1)C2: 1.04

Any idea what log10(EC50) came out for O=S(=O)([O-])O.c1ccc(-n2n[n+](C34CC5CC(CC(C5)C3)C4)nc2SC23CC4CC(CC(C4)C2)C3)cc1 on Influenza A virus?
1.76

Which measured log10(EC50) belongs to Cl.NC12CC3CC(C1)CC(n1cncn1)(C3)C2 , tested on Influenza A virus?
2.09

Please state recorded log10(EC50) (tested on Influenza A virus) of Cc1ncn(C23CC4CC(CC(C(C)N)(C4)C2)C3)n1.Cl.Cl (stereo unspecified)
1.79

Query the reported log10(EC50) for Influenza A virus; item: CC(N)C12CC3CC(CC(C3)C1)C2 (stereo unspecified)
0.70

Request - read-out log10(EC50) | tested on Influenza A virus | compound CC(N)C12CC3CC(C1)CC(n1cnc(Cl)n1)(C3)C2.Cl (stereo unspecified)
1.18

Form entry - test system: Influenza A virus; read-out: log10(EC50); compound: [S-]c1n[n+](C23CC4CC(CC(C4)C2)C3)nn1-c1ccccc1
2.11

Give the reported log10(EC50) for CCOC(=O)Cc1nnn(C23CC4CC(CC(C4)C2)C3)n1 (system: Influenza A virus).
2.37

Lab request: please report log10(EC50) under test system Influenza A virus for NC1N=NC(Cc2nnn(C34CC5CC(CC(C5)C3)C4)n2)=N1 (stereo unspecified)
-1.05
